# Test system: AncSZ
# EXPERIMENT_NOTES: phosphorylation enrichment, bacterial display (enrichment ratio); higher = better substrate or ligand; peptides without Tyr show the background
# phosphorylation enrichment annotations
Please reply with the number alone, leaving off any unit.

Take a look at these entries with their results.
# MACROMOLECULE_SEQUENCE, REPORTED_MEASUREMENT
records = [
    ("LLANAYIYDVQ [L1CAM_Y418_V421D]", 1.17),
    ("EQAERYDDMAA [YWHAG_Y20]", 1.22),
]

input: Name the recorded phosphorylation enrichment for SSSNPYSTVTV [ACTN2_Y599_M604V] .
output: 0.432

input: Fill in: phosphorylation enrichment of VPVPGYTKVPE [SPRR3_Y146_L149V] is ___
output: 0.776

input: phosphorylation enrichment for CEAMEYQESKQ [BTK_Y511_L512Q] ?
output: 1.57

input: What value of phosphorylation enrichment has been recorded for this entry: ALRHYYKLNII [ETV6_Y402]
output: 0.968

input: phosphorylation enrichment lookup needed for IKKLIYVFLVI [JAGN1_Y42_H44Y_YF] , thanks.
output: 0.884

###

# TEST_SYSTEM: MERTK (UniProt Q12866)
# Sequence (Q12866 whole entry, looked up): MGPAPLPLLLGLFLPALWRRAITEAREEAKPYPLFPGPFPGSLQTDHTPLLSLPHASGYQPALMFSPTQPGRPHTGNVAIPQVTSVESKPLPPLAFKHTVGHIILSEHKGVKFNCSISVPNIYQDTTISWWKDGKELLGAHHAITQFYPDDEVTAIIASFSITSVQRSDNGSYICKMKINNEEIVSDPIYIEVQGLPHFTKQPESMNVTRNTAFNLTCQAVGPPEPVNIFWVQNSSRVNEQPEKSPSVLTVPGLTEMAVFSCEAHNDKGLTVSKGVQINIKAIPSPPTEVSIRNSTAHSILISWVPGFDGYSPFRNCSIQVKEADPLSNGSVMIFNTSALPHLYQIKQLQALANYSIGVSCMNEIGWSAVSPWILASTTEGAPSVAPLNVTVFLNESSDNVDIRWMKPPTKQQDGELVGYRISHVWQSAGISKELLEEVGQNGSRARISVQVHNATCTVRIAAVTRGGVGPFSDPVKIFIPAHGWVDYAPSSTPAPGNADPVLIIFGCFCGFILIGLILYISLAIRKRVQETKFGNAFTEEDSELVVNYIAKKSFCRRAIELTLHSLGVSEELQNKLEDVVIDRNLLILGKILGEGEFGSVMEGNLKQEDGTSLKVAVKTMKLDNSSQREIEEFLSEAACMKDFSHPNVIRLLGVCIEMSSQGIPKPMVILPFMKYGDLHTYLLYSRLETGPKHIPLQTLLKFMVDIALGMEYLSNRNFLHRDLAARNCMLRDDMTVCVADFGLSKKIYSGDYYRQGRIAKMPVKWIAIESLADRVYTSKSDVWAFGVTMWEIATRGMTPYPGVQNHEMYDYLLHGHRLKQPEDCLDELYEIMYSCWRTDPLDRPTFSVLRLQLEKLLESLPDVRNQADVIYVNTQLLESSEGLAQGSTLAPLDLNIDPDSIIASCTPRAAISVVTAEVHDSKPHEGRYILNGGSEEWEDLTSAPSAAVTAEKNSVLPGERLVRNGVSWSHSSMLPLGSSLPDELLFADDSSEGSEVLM
# EXPERIMENT_NOTES: phosphorylation enrichment, bacterial display (enrichment ratio); higher = better substrate or ligand; peptides without Tyr show the background
ENDPOINT_LABEL: phosphorylation enrichment
Lab note: write the figure by itself, no unit.

# MACROMOLECULE_SEQUENCE, phosphorylation enrichment
records = [
    ("TVSSDYLHPQY [CCPG1_Y569_F566S]", 0.315),
    ("PGIRMYRVQFN [LRFN1_Y454_Q455R_YF]", 0.652),
    ("FGIAQYCCRMG [LRRK2_Y2023_YF]", 1.25),
    ("SRGLAYPARPA [LEMD2_Y122]", 0.339),
    ("GMKIVYVYVKK [DNAI2_Y5_E2K]", 0.418),
    ("YDAHNYHPLPV [OAT_Y55_G51D]", 3.58),
    ("ADDSFYTARSA [ZAP70_Y493_YF]", 0.681),
    ("PIGRKYKKVRF [F8_Y442_R437P]", 0.498),
]

input: Fill in the blank: the reported phosphorylation enrichment of LGPSDYFGETA [PRKAR1A_Y323_I327T] is ____.
output: 0.398

input: Request the reported phosphorylation enrichment associated with SSVAGYACLAF [MVD_Y131_A128V_YF]
output: 0.631

input: Bench note: what phosphorylation enrichment did QLLIKYPPEEV [ZZZ3_Y670] show?
output: 0.858

input: Recorded phosphorylation enrichment for PEIIAYQPFGK [PRKCG_Y529_YF] , please?
output: 0.653

input: Could you share which phosphorylation enrichment value was measured for RRNTPYSQTMK [TET2_Y819_S817T] ?
output: 0.503

input: Endpoint output: phosphorylation enrichment of NFRTTCVNANE [KCNH2_Y475_Y475C] . Value?
output: 0.423

input: Tell me the measured phosphorylation enrichment of FGFPGYQSKHF [TIMP3_Y177_YF] , please.
output: 0.405

input: Data request, read-out phosphorylation enrichment, for VATRWYRSLEL [CDKL5_Y177_P180L]
output: 0.366

input: Recorded phosphorylation enrichment for GDRPVYSEDEQ [CHST6_Y362_Y358D] , please?
output: 0.565

input: Param item = ALVLQYLRVPL [F9_Y371] ; retrieve measured phosphorylation enrichment.
output: 0.378

input: Any idea what its phosphorylation enrichment is? The sequence is EAEPFYCSLRD [NPHS1_Y1139_R1140C_YF]
output: 1.67

input: Suppose we examine the sequence FDFKKYGKGLR [ZNF445_Y433_YF] ; what phosphorylation enrichment value has been reported?
output: 0.389

input: What value of phosphorylation enrichment has been recorded for this entry: SIKGKYVTALY [KCNH2_Y611_D609G]
output: 0.358

###

# TEST_SYSTEM: Fes (UniProt P07332)
# Sequence (P07332 whole entry, looked up): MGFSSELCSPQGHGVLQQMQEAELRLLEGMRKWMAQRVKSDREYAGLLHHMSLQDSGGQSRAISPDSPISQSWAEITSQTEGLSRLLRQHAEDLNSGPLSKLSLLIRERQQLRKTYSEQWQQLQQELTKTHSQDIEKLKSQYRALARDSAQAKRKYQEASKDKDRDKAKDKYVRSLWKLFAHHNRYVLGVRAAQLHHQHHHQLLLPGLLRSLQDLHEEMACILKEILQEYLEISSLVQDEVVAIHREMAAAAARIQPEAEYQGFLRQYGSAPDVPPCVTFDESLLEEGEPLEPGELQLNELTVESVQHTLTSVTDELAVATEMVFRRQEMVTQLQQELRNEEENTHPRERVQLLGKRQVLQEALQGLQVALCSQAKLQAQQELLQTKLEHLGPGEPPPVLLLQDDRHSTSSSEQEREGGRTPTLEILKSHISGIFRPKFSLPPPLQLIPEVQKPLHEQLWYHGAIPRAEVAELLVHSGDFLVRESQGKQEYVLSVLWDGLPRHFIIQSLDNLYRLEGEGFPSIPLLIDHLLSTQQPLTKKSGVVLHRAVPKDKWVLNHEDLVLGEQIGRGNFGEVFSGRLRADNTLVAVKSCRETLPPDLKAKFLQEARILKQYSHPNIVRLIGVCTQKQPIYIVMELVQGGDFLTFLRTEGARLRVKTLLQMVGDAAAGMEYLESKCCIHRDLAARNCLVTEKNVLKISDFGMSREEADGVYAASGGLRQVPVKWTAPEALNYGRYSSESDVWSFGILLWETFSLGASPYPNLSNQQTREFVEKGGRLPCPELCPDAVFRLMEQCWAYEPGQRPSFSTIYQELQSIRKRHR
# EXPERIMENT_NOTES: phosphorylation enrichment, bacterial display (enrichment ratio); higher = better substrate or ligand; peptides without Tyr show the background
# phosphorylation enrichment annotations

# MACROMOLECULE_SEQUENCE, phosphorylation enrichment
records = [
    ("ENELTYYCCKK [CD59_Y86]", 0.955),
    ("GPKSTYISSAA [GOLGA5_Y62]", 0.7),
    ("LEHCQYVTQKV [ALDOB_Y204_E207Q]", 1.04),
    ("DLQDENDFKCK [STAT1_Y170_Y170N]", 1.86),
    ("LVRPPYSYSAL [FOXI1_Y126]", 0.862),
]

input: Param readout = phosphorylation enrichment; param system = Fes (UniProt P07332); param query = YFWDGYMPRQY [GSS_Y270_R267W] ; response: value
output: 1.18

input: Enter reported phosphorylation enrichment observed with Fes (UniProt P07332) for SETDDYAEIID [PTK2_Y397]
output: 1.6

input: Quick check: phosphorylation enrichment on Fes (UniProt P07332), item KLQKFYRKNPD [EHHADH_Y683_Q685K_YF] ?
output: 0.541

input: For the record RLRKFHLGKFL [KLB_Y906_Y906H_YF] , what value of phosphorylation enrichment is listed for Fes (UniProt P07332)?
output: 1.13

input: Under Fes (UniProt P07332): phosphorylation enrichment value of FLGKGYSDGGC [MC4R_Y35_S30F] ?
output: 1.14

input: Record INNIDYYKKTT [FGFR2_Y656] : what is its phosphorylation enrichment with Fes (UniProt P07332)?
output: 0.876

input: GET /values?readout=phosphorylation enrichment&system=Fes (UniProt P07332)&item= RRGTRYMSSRP [RPL21_Y13_F15S]
output: 0.473

input: Lab note: need phosphorylation enrichment with Fes (UniProt P07332) for entry SVVVPSEPPEV [TP53_Y220_Y220S] , please look it up.
output: 1.12

input: Recall the recorded phosphorylation enrichment for IVEFAYNDKAI [PUM3_Y259_YF] with Fes (UniProt P07332) and state it.
output: 0.74

###

# TEST_SYSTEM: Grb2 SH2 (UniProt P62993)
# Sequence (P62993 whole entry, looked up): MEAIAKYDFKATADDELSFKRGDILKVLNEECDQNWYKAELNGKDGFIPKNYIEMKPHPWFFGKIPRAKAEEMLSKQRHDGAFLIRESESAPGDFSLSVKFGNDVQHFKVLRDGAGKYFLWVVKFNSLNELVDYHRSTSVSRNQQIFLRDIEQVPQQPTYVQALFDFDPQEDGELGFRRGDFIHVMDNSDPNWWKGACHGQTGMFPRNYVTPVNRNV
# EXPERIMENT_NOTES: SH2 binding enrichment of the phosphorylated peptide, bacterial display (enrichment ratio); higher = better substrate or ligand; peptides without Tyr show the background
Parameter SH2 binding enrichment: see the listing below.
Could you keep your reply to the number by itself?

Examples with their reported SH2 binding enrichment follow.
# MACROMOLECULE_SEQUENCE, TEST_SYSTEM, REPORTED_MEASUREMENT
measured = [
    ("AQVDTYCRHNF [HLA-DRB1_Y107_A103Q_YF]", "Grb2 SH2 (UniProt P62993)", 1.06),
    ("SWDKRYCEAGF [ITGA2B_Y197]", "Grb2 SH2 (UniProt P62993)", 1.07),
    ("CYVYYYSYLLK [PTEN_Y178_R173C]", "Grb2 SH2 (UniProt P62993)", 0.864),
    ("KKHIPYSEHKS [CSNK1G2_Y206_R207S]", "Grb2 SH2 (UniProt P62993)", 1.62),
    ("GCKNRYDKGKP [THAP1_Y14_D17G]", "Grb2 SH2 (UniProt P62993)", 1.5),
]

input: Notebook: pull reported SH2 binding enrichment for Grb2 SH2 (UniProt P62993), entry ISKKIYDTIHD [CTNNA3_Y614]
output: 0.746

input: Lab note: need SH2 binding enrichment for EARRVYGDIIY [ALDH5A1_Y175_H180Y] on Grb2 SH2 (UniProt P62993), anyone have it?
output: 0.805

###

phosphorylation enrichment by entry:
# TEST_SYSTEM: EPHB2 (UniProt P29323)
# Sequence (P29323 whole entry, looked up): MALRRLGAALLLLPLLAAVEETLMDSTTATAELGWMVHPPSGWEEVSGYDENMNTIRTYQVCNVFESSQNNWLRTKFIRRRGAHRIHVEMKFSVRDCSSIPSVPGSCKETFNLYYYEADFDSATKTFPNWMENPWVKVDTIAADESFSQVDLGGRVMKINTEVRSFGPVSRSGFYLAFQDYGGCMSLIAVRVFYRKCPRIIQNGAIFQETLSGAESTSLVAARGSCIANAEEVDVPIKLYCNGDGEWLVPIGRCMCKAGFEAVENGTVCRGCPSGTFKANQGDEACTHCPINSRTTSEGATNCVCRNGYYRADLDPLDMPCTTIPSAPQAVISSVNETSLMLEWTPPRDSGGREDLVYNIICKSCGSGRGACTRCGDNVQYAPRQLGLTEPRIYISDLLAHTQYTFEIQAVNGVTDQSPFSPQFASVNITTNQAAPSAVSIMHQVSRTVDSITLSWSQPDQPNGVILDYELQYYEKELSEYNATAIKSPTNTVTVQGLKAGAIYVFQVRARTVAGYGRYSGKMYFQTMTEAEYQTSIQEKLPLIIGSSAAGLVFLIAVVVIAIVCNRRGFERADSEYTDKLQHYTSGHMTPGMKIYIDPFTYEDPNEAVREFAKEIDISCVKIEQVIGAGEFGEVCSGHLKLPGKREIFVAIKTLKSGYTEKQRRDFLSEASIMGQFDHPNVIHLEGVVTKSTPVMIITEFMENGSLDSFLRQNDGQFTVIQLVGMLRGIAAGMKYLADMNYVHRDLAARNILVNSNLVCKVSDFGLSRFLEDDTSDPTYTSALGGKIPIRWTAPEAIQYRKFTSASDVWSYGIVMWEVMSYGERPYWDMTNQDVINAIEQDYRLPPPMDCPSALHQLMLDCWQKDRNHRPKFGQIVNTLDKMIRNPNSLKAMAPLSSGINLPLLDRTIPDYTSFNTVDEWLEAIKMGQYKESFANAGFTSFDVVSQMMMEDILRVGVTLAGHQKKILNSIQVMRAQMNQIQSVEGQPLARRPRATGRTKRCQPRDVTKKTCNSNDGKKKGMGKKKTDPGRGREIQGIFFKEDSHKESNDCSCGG
# EXPERIMENT_NOTES: phosphorylation enrichment, bacterial display (enrichment ratio); higher = better substrate or ligand; peptides without Tyr show the background
Returns: the value as a bare number; no unit string appended.

Recorded results for 5 sequences are shown here.
# MACROMOLECULE_SEQUENCE, phosphorylation enrichment
data = [
    ("TLMNAYSSRSH [KIF11_Y231]", 0.517),
    ("ERNAHYRTPKI [PTK2B_Y699_R698H]", 0.561),
    ("FTNELYMMMRD [FGFR1_Y730_C725Y_YF]", 1.69),
    ("STEAIYRRFSK [SH3PXD2B_Y42_YF]", 0.293),
    ("PPQFSYGLQTQ [SRA1_Y35]", 0.584),
]

input: EPHB2 (UniProt P29323) / phosphorylation enrichment / WRGMPYGGRGD [TGM1_Y312_R307W] : value?
output: 0.401

input: Give EPHB2 (UniProt P29323) phosphorylation enrichment for GFGGGYGGVLT [KRT19_Y65_A60G_YF]
output: 0.444

input: // map EGNERYEGFCV [GRIA3_Y451_YF] to recorded phosphorylation enrichment (system: EPHB2 (UniProt P29323))
output: 0.515

input: Which phosphorylation enrichment is reported with EPHB2 (UniProt P29323) for this entry: SETDDYAEIID [PTK2_Y397] ?
output: 0.838

input: Query the reported phosphorylation enrichment for EPHB2 (UniProt P29323); item: SVVVPDEPPEV [TP53_Y220_Y220D]
output: 0.665

input: Any idea what phosphorylation enrichment came out for HSFQCYGRNEA [ENTPD3_Y262] on EPHB2 (UniProt P29323)?
output: 1.04

input: Item GREEFYVHFVG [KAT8_Y90_YF] with EPHB2 (UniProt P29323) - phosphorylation enrichment?
output: 0.602

input: Value wanted: phosphorylation enrichment (EPHB2 (UniProt P29323)) of entry KKFPDYIQIAM [SGMS2_Y59_YF]
output: 0.672

input: Look up phosphorylation enrichment with EPHB2 (UniProt P29323) for this sequence: EPYEVYRIVPE [IRF8_Y110_K108E]
output: 1.9
